- MEASUREMENT_PROTOCOL: gradient 5% acetonitrile 3 min, to 50% in 2 min, to 85% in 15 min, held 3 min, 100 µL/min
- SETUP_CONDITIONS: column: Zorbax Extend-C18 2.1 x 50 mm; eluents: water / acetonitrile, 0.1% formic acid
RP-LC retention time vs 800 s: less than gives True; not less than gives False.

> print(dat)
                                    compound  assigned.category
 1  O=C(CSc1nccnc1N1CCN(c2ccccc2)CC1)Nc1ccc(F)cc1F              False
 2    O=C(NCCN1CCCC1)C1CCN(c2nc3cccnc3s2)CC1               True
 3  Cc1cccc(NC(=O)c2cnc3c(c2)c(=O)n(C)c(=O)n3-c2ccccc2)c1              False
 4          Cc1ccc(Nc2ncccc2S(N)(=O)=O)cc1Cl              False
 5  CC(C)CC(=O)Nc1ccc(N2CCN(CC(=O)N(C)C)CC2)cc1C(=O)O               True
 6  CC1=C(c2ccc(C)cc2)S(=O)(=O)N=C1N1CCCN(C(=O)c2cccs2)CC1              False
 7         COc1ncc(C(=O)Nc2ccc(C)cc2C)c(C)n1               True
 8  Cc1ccc(-c2nc(Cn3nnc(C(=O)NC4CCCC4)c3C)c(C)o2)cc1              False
 9  Cc1ccccc1C(=O)NC1CCN(c2cc(-c3cccs3)[nH]n2)C1 (stereo not given)               True
10  COc1ccc(-c2c(C)noc2NC(C)=O)cc1S(=O)(=O)Nc1ccc(C)cc1Cl              False
11    CCCS(=O)(=O)NCCNc1cc(-n2nc(C)cc2C)ncn1               True
12  O=C(Cn1cccc(-c2nc(-c3ccc(F)cc3)no2)c1=O)Nc1ccc(Br)cc1F              False
13  CCOC(=O)c1c(NCCc2c[nH]c3ccccc23)c2ccc(Cl)cc2[nH]c1=O              False
14  Cc1ccnc(N2CCCC(C(=O)NCCN3CCN(c4ccccc4F)CC3)C2)n1 (stereo not given)               True
15  CCC(=O)Nc1ccc2c(c1)CN(C(=O)c1ccccc1F)C(C(=O)N1CCCC1)C2 (stereo not given)               True
16  COc1ccc(OC)c(CNC(=O)c2c(C)sc3ccn(C)c(=O)c23)c1               True
17  Cc1nc(-c2csc(S(=O)(=O)N3CCC(C(=O)Nc4cccc(Cl)c4)CC3)c2)no1              False
18          C=CCNC(=O)c1ccc2[nH]c(C)c(C)c2c1               True
19  CC(C)CC(=O)Nc1ccc(S(=O)(=O)N2CCCC2c2nc(-c3ccccc3)no2)cc1 (stereo not given)              False
20                Cc1nc(CCNC(=O)Cc2ccsc2)no1               True

* * *

- MEASUREMENT_PROTOCOL: gradient 5% acetonitrile 3 min, to 50% in 2 min, to 85% in 15 min, held 3 min, 100 µL/min
- SETUP_CONDITIONS: column: Zorbax Extend-C18 2.1 x 50 mm; eluents: water / acetonitrile, 0.1% formic acid
MEASUREMENT_TYPE: RP-LC retention time (s)

> print(dat)
                                    compound  test.result
 1  CCc1csc(-c2ccc(N3CCN(C(=O)c4ccc(F)c(F)c4)CC3)nc2)n1          955
 2  CCCc1ccc(S(=O)(=O)N2CCC3(CC2)NCCN=C3NCc2ccccc2OC)cc1          836
 3  COc1cccc(NC(=O)Cn2c(C)nc3onc(C)c3c2=O)c1          708
 4  CCN(Cc1ccccc1)c1ccc(-c2noc(CN3CCN(C)CC3)n2)cn1          670
 5  Cc1ccc(NC(=O)N2CCCC2C(=O)NC2CC2)cc1 (centres undefined)          668
 6  CN(C)c1nc2ncn3c(=O)n(CC(=O)NCc4ccccc4Cl)nc3c2s1          686
 7  CC(C)c1ccc(NC(=O)C2CCCN(c3nc4ccccc4nc3C(F)(F)F)C2)cc1 (centres undefined)          957
 8  COc1ccccc1-c1nc(Cn2nnc(-c3nc(-c4ccccc4Cl)no3)c2C)c(C)o1         1120
 9  CCCn1nnc2cc(-c3noc(CN4C(=O)COc5ccccc54)n3)ccc21          926
10         O=C(Nc1ccc(Cl)cc1)c1cn2c(n1)CCCC2          640
11  O=C([C@@H]1C[C@H](F)CN1S(=O)(=O)c1ccc(F)cc1F)N1CCOCC1          692
12  CCn1ccc(C(=O)NCC2Cn3cccc3C(=O)N2CC(C)C)n1 (centres undefined)          680
13  CC(C(=O)NCCN(C)C)C1CCN(C(=O)c2cc3cc(Cl)ccc3[nH]2)CC1 (centres undefined)          649
14  CCc1cc(=O)n(CC(=O)Nc2ccc(F)c(Cl)c2)c(N2CCOCC2)n1          828
15  CCN1C(=O)c2cccnc2Sc2cc(NC(=O)c3ccc(C)cc3)ccc21          859
16  COc1cc(OC)cc(C(=O)N2CCC3(CC2)NC(=O)c2ccc(F)cc2N3C)c1          734
17  CC(NC(=O)Cn1cnc2cc3c(cc21)OCCO3)c1ccc2c(c1)OCCCO2 (centres undefined)          646
18  Cc1cc2[nH]c(C(=O)Nc3ccccc3F)c(CN(C)C)c2s1          654
19  COc1ccc(-c2csc(NC(=O)COc3ccccc3Cl)n2)cc1Br         1220
20      O=C(Oc1cccc([N+](=O)[O-])c1)N1CCCCC1          896
21  CCC(C)NC(=O)C1CCCN(c2nccn3nc(-c4ccc(C)cc4C)cc23)C1 (centres undefined)          908
22  CCOc1ccc(Cl)cc1S(=O)(=O)N1CCC(C(=O)N2CCCC2)CC1          820
23  Cc1ccc(Nc2c(-c3cccc(O)c3)nc3cnccn23)c(C)c1          750
24  O=[N+]([O-])c1c(-c2nc3ccc(Cl)cn3c2Nc2ccc(Cl)cc2)ccc2c1OCO2         1000
25  O=C(Cn1c(=O)oc2ccccc21)Nc1nc(-c2ccccc2)cs1          912
26  COc1cccc(NC(=O)Nc2nccn(-c3ccc(F)c(F)c3)c2=O)c1          927
27  Cn1nccc1-c1cccc(-c2noc(-c3ccc(F)c(Cl)c3)n2)c1         1280
28  COc1cccc(C(=O)Nc2nc(-c3ccc4c(c3)NC(=O)C(C)O4)c(C)s2)c1 (centres undefined)          964
29  Cc1ccc2nc(CN3CCN(C(=O)NCCc4ccccc4)CC3)oc2c1          677
30  Cn1ccc(C(=O)Nc2ccc(Cl)cc2C(=O)c2ccccc2)n1         1010
31    CCN(CC)CCNc1ncnc2onc(-c3cccc(Cl)c3)c12          660
32  CC(C)n1c(N2CCCN(C(=O)c3ccc(Br)o3)CC2)cc(=O)n(C(C)C)c1=O          866
33  CC1CCN(C(=O)c2ccc3c(c2)N(CC(=O)N2CCCC2)C(=O)CO3)CC1          703
34  O=C(c1cc(-c2cccnc2)n[nH]1)N1CCN(C(=O)C2CC2)CC1          565
35  Cc1ccc(NS(=O)(=O)c2cc3n(c2)CCCNC3=O)c(C)c1          678
36  COc1ccc(OC)c(NC(=O)Cn2c(C)cc(-c3nnc(C4CCC4)o3)c2C)c1          924
37  Cc1ccc(CNC(=O)Cn2c3ccccc3c3cnn(C)c(=O)c32)o1          925
38      O=C(c1ccccc1)N1CCN(c2nnc3ccccn23)CC1          608
39  Cc1ccc(N2C(=O)C3N=NN(Cc4nc(-c5cccc(Br)c5)no4)C3C2=O)cc1C (centres undefined)         1120

* * *

- MEASUREMENT_PROTOCOL: gradient 5% acetonitrile 3 min, to 50% in 2 min, to 85% in 15 min, held 3 min, 100 µL/min
- SETUP_CONDITIONS: column: Zorbax Extend-C18 2.1 x 50 mm; eluents: water / acetonitrile, 0.1% formic acid
RP-LC retention time vs 800 s: less than gives label 1; not less than gives label 0.

> print(dat)
                                    compound  assigned.category
 1  Cc1ccc(/C=C/S(=O)(=O)NCCn2nc(-c3cccnc3)ccc2=O)cc1            label 1
 2  O=C(c1csc(-c2ccc(N3CCCCC3)nc2)n1)N1CCN(c2ccccn2)CC1            label 1
 3  CCOc1ccccc1C(=O)Nc1c(-c2ccccc2)nc2ccccn12            label 1
 4       Cc1ncc2c(n1)CCCN(CC(=O)N1CCCC1)C2=O            label 1
 5  Cc1cc(=O)n(CC(=O)Nc2ccc3c(c2)OCO3)c(N2CCc3ccccc3C2)n1            label 1
 6  Cc1ccc(-c2noc(-c3ccc(N4CCN(C5CCCCC5)CC4)nc3)n2)cc1            label 0
 7   COCCCN(CC(=O)N1CCNCC1)C(=O)c1ccc(Br)cc1            label 1
 8  COc1cc(-c2nnc(/C=C/c3cccs3)o2)cc(OC)c1OC            label 0
 9  CCc1nc(-c2csc(S(=O)(=O)N3CCC(C(=O)NCc4ccccc4Cl)CC3)c2)no1            label 0
10  O=C(c1ccccc1)N1CCCC1c1nc(-c2ccccc2Cl)no1 (centres undefined)            label 0
11       CCOc1ccc(CNC(=O)c2cn3c(n2)CCCC3)cc1            label 1
12  Cc1ccc(S(=O)(=O)N2CCC(CC(=O)NCCN(C)Cc3ccccc3)CC2)cc1            label 1
13  COc1ccc(OC)c(CNS(=O)(=O)c2cc(-c3cnn4c(C)cc(C)nc34)ccc2OC)c1            label 0
14  COc1ccc(-n2ccn3cc(-c4ccc5c(c4)OCO5)nc3c2=O)cc1Cl            label 0
15  O=C(NC1CCCC1)c1ccc(Cn2nc(N3CCN(c4ccccc4)CC3)ccc2=O)o1            label 0
16  COCCC(=O)NC1CCN(c2ccc(C)c(C)c2)C1=O (centres undefined)            label 1
17  CC(C)c1ccc(-c2cc3c4nn(CC(=O)N5CCCC5)c(=O)n4ccn3n2)cc1            label 0
18  CC(C)N1CCC(c2nnc3n2CCN(S(=O)(=O)c2ccc(C(F)(F)F)cc2)C3)C1 (centres undefined)            label 1
19        CCOC(=O)c1c(Cc2ccc(Cl)cc2)c[nH]c1C            label 0
20  Cc1ccc(Cl)cc1NC(=O)N1CCC(n2cnc3cccnc32)CC1            label 1
21  Cc1ccc(N2CCN(c3nccn4c(=O)n(CC(=O)Nc5ccc(C)c(C)c5)nc34)CC2)cc1            label 0
22  CCCn1c(=O)sc2cc(S(=O)(=O)N3CCC(C(=O)NCc4ccc(C)o4)CC3)ccc21            label 0
23    O=C(CN1C(=O)CCC1=O)N(Cc1ccsc1)Cc1ccco1            label 1
24  CCN(CC)S(=O)(=O)c1ccc2c(c1)CC(C(=O)N1CCN(c3ccccc3)CC1)N2C(C)=O (centres undefined)            label 0
25  CCN(CC)CCNC(=O)c1cc2n(n1)CCCN(Cc1cccc(C)c1)C2=O            label 1
26  O=S(=O)(c1cccs1)N1CCc2nc(-c3ccccc3)ncc2C1            label 0
27  Cc1ccc(C)c(CNC(=O)C2CCCN(c3cnc4nccnc4c3)C2)c1 (centres undefined)            label 1
28  O=C(NCCS(=O)(=O)N1CCN(c2ncccn2)CC1)Nc1cccs1            label 1
29  O=C(C1=CN(c2ccc(F)c(Cl)c2)c2cc(F)ccc2S1(=O)=O)N1CCOCC1            label 1
30  CN1[C@@H]2CC[C@H]1CC(OC(=O)C1C=Nc3ccccc31)C2 (some centres undefined)            label 1
31  COc1cc([C@@H]2c3cc4c(cc3[C@H](O)[C@@H](CO)[C@@H]2C(=O)NCc2ccc3c(c2)OCO3)OCO4)cc(OC)c1OC            label 1
32  O=C(NC1CC1)c1ccc(N2CCC(NCc3cc(Br)ccc3O)C2)nc1 (centres undefined)            label 1
33  CC(C)c1noc(C2CCCN(S(C)(=O)=O)CCC(=O)NCC2)n1 (centres undefined)            label 1
34  CCCCN1C(=O)C(NC(=O)c2ccccc2OC)(C(F)(F)F)C2=C1CC(C)(C)CC2=O (centres undefined)            label 0

Where do these numbers come from? They come from the METLIN SMRT retention time set (Domingo-Almenara et al. 2019).
